Catalogue of compounds with associated Plant response rating, Ryegrass, Italian
Tested on: ryegrass, Italian (Italian ryegrass, Lolium multiflorum)
Test: Test A postemergence
Assay type: in vivo
Applied Conditions: Postemergence, 500 g ai/ha; 0 to 100 scale where 0 is no effect and 100 is complete control
Answer as a number with no unit attached.

Completed entries (count: 2):
Compound: O=C1NCC(c2cc(F)c(F)cc2F)C1C(=O)Nc1cccc(F)c1F (racemic)
Property Measured: Plant response rating, Ryegrass, Italian
Endpoint Value: 20

Compound: CC(C)=CCN1CC(c2cccc(C(F)(F)F)c2)C(C(=O)Nc2ccccc2F)C1=O (centres unmarked)
Property Measured: Plant response rating, Ryegrass, Italian
Endpoint Value: 20

Lab note: next compound to report on.
QUERY: // Input: O=C1NCC(c2ccc(F)cc2F)C1C(=O)Nc1ccccc1F (centres unmarked) . Output its Plant response rating, Ryegrass, Italian only.
RESULT: 0

----------
Tested on: rice (Oryra sativa)
Test: Test B flooded paddy test
Format: in vivo
Applied Conditions: Oryza sativa, Flood, 250 g ai/ha; scale of 0 to 100 where 0 is no effect and 100 is complete control; read-out: Rice plant response rating
Listed here: items and their measured pest or weed control at 250 g/ha.
Give the value in % but do not write % after it.

Compound: CN1CC(c2cccc(C=O)c2)C(C(=O)Nc2ccccc2F)C1=O (stereo not shown)
pest or weed control at 250 g/ha / %: 0
--
Compound: O=C1NC[C@H](c2cc(C(F)(F)F)cs2)[C@H]1C(=O)Nc1ccccc1F
pest or weed control at 250 g/ha / %: 0
--
Compound: Cc1ccc([C@H]2CN(C)C(=O)[C@@H]2C(=O)Nc2cccc(F)c2C)cc1F
pest or weed control at 250 g/ha / %: 20

Please look at the following compound next.
QUERY: Provide only the value of recorded pest or weed control at 250 g/ha for CN1C[C@H](c2cccc(C3CC3)c2)[C@@H](C(=O)Nc2ccccc2F)C1=O
RESULT: 20

----------
System: ragweed (common ragweed, Ambrosia elatior)
Test: Test A preemergence
Type: in vivo
Applied Conditions: 125 g ai/ha, Preemergence; visual injury after approximately 10 d; 0 to 100 scale where 0 is no effect and 100 is complete control
Property Measured: Plant response rating, Ragweed

# annotated cases, reported Plant response rating, Ragweed shown
Molecule: CN1CC(c2ccc(C(F)(F)F)cc2F)C(C(=O)Nc2cccc(F)c2F)C1=O (stereo not shown)
Measurement Target: ragweed (common ragweed, Ambrosia elatior)
Plant response rating, Ragweed: 0

Molecule: CN1CC(c2ccc(F)c(F)c2)C(C(=O)Nc2ccccc2C(F)(F)F)C1=O (stereo not shown)
Measurement Target: ragweed (common ragweed, Ambrosia elatior)
Plant response rating, Ragweed: 0

Molecule: CN1CC(c2cccc(F)c2)C(C(=O)Nc2ccc(F)cc2F)C1=O (stereo not shown)
Measurement Target: ragweed (common ragweed, Ambrosia elatior)
Plant response rating, Ragweed: 0

Molecule: Cc1ccc(C2CNC(=O)C2C(=O)Nc2ccc(F)cc2F)c(F)c1 (racemic)
Measurement Target: ragweed (common ragweed, Ambrosia elatior)
Plant response rating, Ragweed: 0

Molecule: O=C1NCC(c2cc(F)c(F)cc2F)C1C(=O)Nc1cccc(F)c1F (racemic)
Measurement Target: ragweed (common ragweed, Ambrosia elatior)
Plant response rating, Ragweed: 0

Molecule: C=C(Cl)CN1CC(c2cccc(C(F)(F)F)c2)C(C(=O)Nc2ccccc2F)C1=O (stereo not shown)
Measurement Target: ragweed (common ragweed, Ambrosia elatior)
Plant response rating, Ragweed: 0

Molecule: Cc1cc(C2CNC(=O)C2C(=O)Nc2cccc(F)c2F)cs1 (racemic)
Measurement Target: ragweed (common ragweed, Ambrosia elatior)
Plant response rating, Ragweed: 20

Molecule: CCc1cc(C2CNC(=O)C2C(=O)Nc2ccccc2F)cs1 (racemic)
Measurement Target: ragweed (common ragweed, Ambrosia elatior)
Plant response rating, Ragweed: 20

QUERY: Tell me its Plant response rating, Ragweed on ragweed (common ragweed, Ambrosia elatior): O=C1NCC(c2c(F)cccc2F)C1C(=O)Nc1ccc(F)cc1F (racemic)
RESULT: 0

QUERY: Answer briefly: Plant response rating, Ragweed recorded on ragweed (common ragweed, Ambrosia elatior) for CN1CC(c2cccc(C(F)(F)F)c2)C(C(=O)Nc2ccccc2)C1=O (stereo not shown)
RESULT: 0

----------
Overview of reported pest or weed control at 125 g/ha across a group of compounds:
Test system: Galium (catchweed bedstraw, Galium aparine)
Test: Test A postemergence
Format: in vivo
Applied Conditions: Galium, post-emergence, 240 h, 125 g ai/ha, postemergence, visual injury rating after approximately 10 d; read-out: Galium plant response rating (0 to 100 scale, 0 no effect, 100 complete control)
Record the result as number plus unit.

Compound: CCOc1ccc([C@H]2CN(C)C(=O)[C@@H]2C(=O)Nc2ccccc2F)cc1 [Compound 903]
Measurement Target: Galium (catchweed bedstraw, Galium aparine)
pest or weed control at 125 g/ha: 10%

QUERY: Check the records and state pest or weed control at 125 g/ha for COc1cc(C(F)(F)F)ccc1[C@H]1CN(C)C(=O)[C@@H]1C(=O)Nc1ccccc1F [Compound 858]
RESULT: 30%

QUERY: Identify measured pest or weed control at 125 g/ha corresponding to CN1CC[C@H](c2ccc3c(c2)OC(F)(F)O3)[C@@H](C(=O)Nc2cccc(F)c2F)C1=O [Compound 812]
RESULT: 50%

QUERY: State its pest or weed control at 125 g/ha: O=C1NC[C@H](c2cncc(C(F)(F)F)c2)[C@H]1C(=O)Nc1ccccc1F [Compound 887]
RESULT: 0%

QUERY: Look up pest or weed control at 125 g/ha of O=C1NCC(c2cccc(I)c2)C1C(=O)Nc1ccccc1F (centres unmarked) [Compound 845] and report it.
RESULT: 20%

QUERY: Return reported pest or weed control at 125 g/ha. Input compound: O=C1NC[C@H](c2cc(F)c(C(F)(F)F)c(F)c2)[C@H]1C(=O)Nc1ccc(F)cc1F [Compound 840]
RESULT: 50%

QUERY: Tell us which pest or weed control at 125 g/ha value is on record for Cc1cc(F)ccc1NC(=O)[C@H]1C(=O)NC[C@@H]1c1cccc(C(F)(F)F)c1 [Compound 828]
RESULT: 30%

QUERY: Entry Cc1cc(F)cc([C@H]2CN(C)C(=O)[C@@H]2C(=O)Nc2cccc(F)c2C)c1 [Compound 802] needs its pest or weed control at 125 g/ha filled in; supply it.
RESULT: 60%

QUERY: # return recorded pest or weed control at 125 g/ha for input CN1C[C@H](c2cc(F)c(C(F)(F)F)c(F)c2)[C@@H](C(=O)Nc2cccc(F)c2F)C1=O [Compound 898]
RESULT: 0%

QUERY: Dear colleague, please send me the reported pest or weed control at 125 g/ha for Cc1c(F)ccc([C@H]2CN(C)C(=O)[C@@H]2C(=O)Nc2ccccc2C(F)(F)F)c1F [Compound 841] when you can.
RESULT: 40%

QUERY: Output pest or weed control at 125 g/ha of CN1C[C@H](c2cccc(C3CC3)c2)[C@@H](C(=O)Nc2ccccc2F)C1=O [Compound 815]
RESULT: 50%

QUERY: Give the value of pest or weed control at 125 g/ha reported for the following: CC(C)(C)c1ccc([C@H]2CNC(=O)[C@@H]2C(=O)Nc2cccc(F)c2F)cc1 [Compound 847]
RESULT: 0%

QUERY: Recall and state the measured pest or weed control at 125 g/ha for Cc1cc(C)cc([C@H]2CN(C)C(=O)[C@@H]2C(=O)Nc2ccccc2C(F)(F)F)c1 [Compound 912] .
RESULT: 0%

QUERY: Consider the compound Cc1c(F)cccc1NC(=O)[C@H]1C(=O)N(C)C[C@@H]1c1cc(F)c(F)c(F)c1 [Compound 867] . State its measured pest or weed control at 125 g/ha.
RESULT: 30%

----------
Test system: Kochia (Kochia scoparia)
Test: Test A postemergence
Format: in vivo
Applied Conditions: Bassia scoparia, post-emergence, 240 h, 125 g ai/ha, Postemergence; visual injury after approximately 10 d; 0 to 100 scale where 0 is no effect and 100 is complete control; read-out: Plant response rating, Kochia
Property Measured: pest or weed control at 125 g/ha (%)
Write it as a number; the unit % goes unstated.

QUERY: Read the entry CN1CC[C@H](c2ccc(OC(F)(F)F)cc2)[C@@H](C(=O)Nc2cccc(Cl)c2F)C1=O and write its reported pest or weed control at 125 g/ha.
RESULT: 0

QUERY: Check the records and state pest or weed control at 125 g/ha for CSc1ccccc1NC(=O)[C@H]1C(=O)N(C)CC[C@@H]1c1ccc(OC(F)(F)F)cc1
RESULT: 0

QUERY: Give the reported pest or weed control at 125 g/ha for this compound. CSc1ccccc1NC(=O)[C@H]1C(=O)N(C)C[C@@H]1c1ccc(F)c(Br)c1
RESULT: 40

QUERY: Using the record for COc1ccc([C@H]2CN(C)C(=O)[C@@H]2C(=O)Nc2ccccc2F)cc1F , state its measured pest or weed control at 125 g/ha.
RESULT: 50

QUERY: Could you please provide reported pest or weed control at 125 g/ha for C=CCOc1cccc(C2CN(C)C(=O)C2C(=O)Nc2cccc(F)c2F)c1 (stereo not shown) ? Thanks!
RESULT: 50

QUERY: Name the recorded pest or weed control at 125 g/ha of the compound listed here: Cc1oncc1NC(=O)[C@H]1C(=O)N(C)C[C@@H]1c1cc(F)cc(F)c1
RESULT: 0

QUERY: Look up and report measured pest or weed control at 125 g/ha for this entry: CC(C)=CC1CNC(=O)C1C(=O)Nc1ccccc1F (stereo not shown)
RESULT: 0

QUERY: Return pest or weed control at 125 g/ha for the following compound: CN1CC[C@H](c2ccc(F)cc2)[C@@H](C(=O)Nc2ccccc2F)C1=O
RESULT: 0

QUERY: Identify the reported pest or weed control at 125 g/ha for the following entry. CN1C[C@H](c2cc(F)cc(Cl)c2)[C@@H](C(=O)Nc2ccccc2F)C1=O
RESULT: 30

QUERY: Specify reported pest or weed control at 125 g/ha for the compound shown: CN1CC[C@H](c2ccccc2C(F)(F)F)[C@@H](C(=O)Nc2ccccc2C(F)(F)F)C1=O
RESULT: 0
